target: T1, biotinylated hBLyS-ECD (human, UniProt Q9Y275 134-285, biotinylated with Biotin-X-X-NHS (molar ratio 7:1); sites not stated); assay: ELISA on captured biotinylated hBLyS-ECD; antibody 0.00427 nM
T1 construct: also called biotinylated immunogen; biotinylated hBLvS-ECD
T1 sequence (Q9Y275 134-285): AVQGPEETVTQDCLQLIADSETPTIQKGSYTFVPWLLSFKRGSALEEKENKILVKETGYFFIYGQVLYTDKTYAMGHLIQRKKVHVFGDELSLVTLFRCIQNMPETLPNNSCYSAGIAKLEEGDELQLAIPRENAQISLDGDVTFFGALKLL
measurement_kind: OD450 nm (OD450 nm)
// return numeric value only (unit: OD450 nm, not printed)

Observe how each entry below is paired with its result.
Q: Can you look up the measured OD450 nm of h8E7D9C7F5-1 (antibody, V domains shown, Humanized antibody; also called humanized BLyS antibody h8E7D9C7F5 variant 1 (VH.1 / Vk.1)) VH: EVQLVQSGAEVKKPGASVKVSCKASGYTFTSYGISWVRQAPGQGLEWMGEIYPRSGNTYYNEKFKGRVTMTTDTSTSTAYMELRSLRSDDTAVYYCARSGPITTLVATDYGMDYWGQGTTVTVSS VL: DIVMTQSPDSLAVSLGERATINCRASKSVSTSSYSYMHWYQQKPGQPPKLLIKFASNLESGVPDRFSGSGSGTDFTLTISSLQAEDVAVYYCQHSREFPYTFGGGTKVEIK for me?
Result: 0.195

Q: Can you look up the measured OD450 nm of c8E7D9C7F5 (antibody, V domains shown, also called chimeric antibody c8E7D9C7F5) VH: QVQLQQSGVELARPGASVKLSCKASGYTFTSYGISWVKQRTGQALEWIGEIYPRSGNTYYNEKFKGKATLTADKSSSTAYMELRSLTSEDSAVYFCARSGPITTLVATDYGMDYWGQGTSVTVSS VL: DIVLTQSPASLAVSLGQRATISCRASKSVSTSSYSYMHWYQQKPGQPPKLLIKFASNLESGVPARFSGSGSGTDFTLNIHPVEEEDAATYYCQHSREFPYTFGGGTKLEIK for me?
Result: 0.198

Q: Can you look up the measured OD450 nm of h97A3C2H4-9 (antibody, V domains shown, Humanized antibody; VH3-7/JH6 CDR-grafted with A93T, G44R; also called humanized BLyS antibody h97A3C2H4 variant 9 (VH.1b / Vk.1d)) VH: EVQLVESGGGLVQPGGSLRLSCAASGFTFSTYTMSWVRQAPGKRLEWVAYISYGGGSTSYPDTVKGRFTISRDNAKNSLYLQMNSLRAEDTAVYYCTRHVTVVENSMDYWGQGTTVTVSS VL: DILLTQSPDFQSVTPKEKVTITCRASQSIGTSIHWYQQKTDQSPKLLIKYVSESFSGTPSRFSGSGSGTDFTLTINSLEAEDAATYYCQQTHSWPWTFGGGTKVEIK for me?
Result: 0.179

Moving on to another binder below.
Q: Can you look up the measured OD450 nm of c97A3C2H4 (antibody, V domains shown, also called chimeric antibody c97A3C2H4) VH: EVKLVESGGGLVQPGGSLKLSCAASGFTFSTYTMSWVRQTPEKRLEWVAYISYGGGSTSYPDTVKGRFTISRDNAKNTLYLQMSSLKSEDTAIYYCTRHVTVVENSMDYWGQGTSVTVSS VL: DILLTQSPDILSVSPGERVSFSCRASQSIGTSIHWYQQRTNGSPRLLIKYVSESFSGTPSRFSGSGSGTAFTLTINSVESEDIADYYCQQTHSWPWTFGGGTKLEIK for me?
Result: 0.194
